# EXPERIMENT_DESCRIPTION: in vitro
# EXPERIMENTAL_CONTEXT: human
PROPERTY_LABEL: CC50

{"COMPOUND": "COC(=O)[C@H]1[C@@H](O)[C@@]2(O)c3c(OC)cc(O[C@@H]4O[C@@H]([C@H](O)CO)CO[C@H]4OC)cc3O[C@@]2(c2ccc(OC)cc2)[C@@H]1c1ccccc1 [Silvestrol]", "RESULT": "> 10 µM"}

* * *

# System: A549 cells
# EXPERIMENTAL_CONTEXT: human

{"CHEMICAL_STRING": "COC(=O)[C@H]1[C@@H](O)[C@@]2(O)c3c(OC)cc(O[C@@H]4O[C@@H]([C@H](O)CO)CO[C@H]4OC)cc3O[C@@]2(c2ccc(OC)cc2)[C@@H]1c1ccccc1", "EXPERIMENTAL_SYSTEM": "A549 cells", "CC50": "9.42 nM"}

* * *

# EXPERIMENT_DESCRIPTION: Cell toxicity in murine hepatocytes
# EXPERIMENTAL_CONTEXT: mouse, murine hepatocytes (mock infected)
PROPERTY_LABEL: CC50

{"CHEMICAL_STRING": "COC(=O)[C@H]1[C@@H](O)[C@@]2(O)c3c(OC)cc(O[C@@H]4O[C@@H]([C@H](O)CO)CO[C@H]4OC)cc3O[C@@]2(c2ccc(OC)cc2)[C@@H]1c1ccccc1", "RESULT": "> 5 µM"}
